We begin with a simple list: items and their reported IC50.
# measured target: Serine/threonine-protein kinase ULK2 (Homo sapiens, UniProt Q8IYT8)
# Sequence (Q8IYT8 whole entry): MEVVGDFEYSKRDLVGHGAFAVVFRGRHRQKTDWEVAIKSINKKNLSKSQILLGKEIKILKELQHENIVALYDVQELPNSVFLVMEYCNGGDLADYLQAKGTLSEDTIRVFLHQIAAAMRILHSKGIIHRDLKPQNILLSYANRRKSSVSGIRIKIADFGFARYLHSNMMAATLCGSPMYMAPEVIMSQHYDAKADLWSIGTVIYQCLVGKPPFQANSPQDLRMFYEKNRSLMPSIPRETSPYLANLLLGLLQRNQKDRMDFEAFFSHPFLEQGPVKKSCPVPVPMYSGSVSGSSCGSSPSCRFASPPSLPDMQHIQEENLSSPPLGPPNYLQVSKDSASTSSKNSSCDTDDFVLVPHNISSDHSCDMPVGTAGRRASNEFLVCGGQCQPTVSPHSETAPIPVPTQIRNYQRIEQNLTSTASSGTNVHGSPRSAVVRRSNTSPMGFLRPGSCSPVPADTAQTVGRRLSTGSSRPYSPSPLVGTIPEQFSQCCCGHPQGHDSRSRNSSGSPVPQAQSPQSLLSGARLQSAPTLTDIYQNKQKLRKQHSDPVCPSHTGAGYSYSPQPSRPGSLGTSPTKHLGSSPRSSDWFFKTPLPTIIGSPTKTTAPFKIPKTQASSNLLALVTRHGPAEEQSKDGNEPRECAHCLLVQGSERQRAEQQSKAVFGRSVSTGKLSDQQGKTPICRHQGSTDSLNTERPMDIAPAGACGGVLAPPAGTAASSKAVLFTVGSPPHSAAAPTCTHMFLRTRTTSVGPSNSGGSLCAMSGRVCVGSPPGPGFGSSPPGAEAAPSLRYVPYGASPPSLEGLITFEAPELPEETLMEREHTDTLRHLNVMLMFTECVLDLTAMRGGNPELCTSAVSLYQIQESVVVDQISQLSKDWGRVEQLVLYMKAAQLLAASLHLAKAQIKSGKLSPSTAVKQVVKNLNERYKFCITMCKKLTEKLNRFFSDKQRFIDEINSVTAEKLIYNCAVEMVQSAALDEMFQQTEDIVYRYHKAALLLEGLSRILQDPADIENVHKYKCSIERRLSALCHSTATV
Just the number please, in µM, no unit attached.

1. CN1C(=O)[C@@H](N2CCc3cn(Cc4ccccc4)nc3C2=O)COc2ccccc21 [TP-030-1] | 1

From here, focus on the item given below.
Enquiry: Lab note: Serine/threonine-protein kinase ULK2 (Homo sapiens, UniProt Q8IYT8) assay, enter IC50 for CN1C(=O)[C@@H](N2CCc3cn(CC4CCS(=O)(=O)CC4)nc3C2=O)COc2ccccc21 [TP-030n] here
Return: 1
